meta.source: patent US20250215412A1

# targetEntity: T1, Chryseobacterium sp-62563 deamidase polypeptide (second polypeptide, deamidase domain), wildtype (Chryseobacterium sp-62563)
# T1 sequence: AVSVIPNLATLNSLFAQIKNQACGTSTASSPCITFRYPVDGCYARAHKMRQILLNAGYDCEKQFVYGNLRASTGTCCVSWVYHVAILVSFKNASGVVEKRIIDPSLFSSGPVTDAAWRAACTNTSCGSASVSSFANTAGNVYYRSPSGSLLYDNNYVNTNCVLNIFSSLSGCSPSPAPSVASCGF
# testMethodNotes: cell-based or functional assay
Relative activity of maturated deamidase (% initial rate) listing for selected binders.
measuredQuantity: Relative activity of maturated deamidase (% initial rate)

{"binder": "Chryseobacterium sp-62563 propeptide D91G (protein) NQDPNLVAKESNETAMKDFGKTVPVGIEKEDGKFKISFMVTAQPYEIKDSKENAAYISMIKTAVENETPIHVFLKANTNEIAKVDKATDDGIRYFKSVFTKEVKEENRK", "assayResult": 56}
{"binder": "Chryseobacterium sp-62563 propeptide P69M (protein) NQDPNLVAKESNETAMKDFGKTVPVGIEKEDGKFKISFMVTAQPYEIKDSKENAAYISMIKTAVENETMIHVFLKANTNEIAKVDKATDDDIRYFKSVFTKEVKEENRK", "assayResult": 67}
{"binder": "Chryseobacterium sp-62563 propeptide Q43D (protein) NQDPNLVAKESNETAMKDFGKTVPVGIEKEDGKFKISFMVTADPYEIKDSKENAAYISMIKTAVENETPIHVFLKANTNEIAKVDKATDDDIRYFKSVFTKEVKEENRK", "assayResult": "> 100"}
{"binder": "Chryseobacterium sp-62563 propeptide F73E (protein) NQDPNLVAKESNETAMKDFGKTVPVGIEKEDGKFKISFMVTAQPYEIKDSKENAAYISMIKTAVENETPIHVELKANTNEIAKVDKATDDDIRYFKSVFTKEVKEENRK", "assayResult": 28}
